FYI, the data here is from patent US20090062351A1.

Target: glucokinase (GLK) (Homo sapiens, UniProt P35557)
Sequence (P35557 1-466 isoform P35557-2): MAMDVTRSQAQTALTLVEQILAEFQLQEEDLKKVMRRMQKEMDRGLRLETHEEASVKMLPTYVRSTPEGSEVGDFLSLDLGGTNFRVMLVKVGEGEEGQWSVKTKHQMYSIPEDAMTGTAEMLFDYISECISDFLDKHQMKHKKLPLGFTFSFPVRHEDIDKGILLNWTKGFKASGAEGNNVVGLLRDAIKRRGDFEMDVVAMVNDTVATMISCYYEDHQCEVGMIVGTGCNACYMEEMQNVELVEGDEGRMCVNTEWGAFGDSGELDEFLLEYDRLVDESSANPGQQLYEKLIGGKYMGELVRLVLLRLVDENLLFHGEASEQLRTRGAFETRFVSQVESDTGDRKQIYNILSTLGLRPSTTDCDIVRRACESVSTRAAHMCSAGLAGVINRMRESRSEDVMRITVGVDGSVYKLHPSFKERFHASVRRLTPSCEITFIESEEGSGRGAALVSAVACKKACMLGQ
Test: biochemical
observationType: EC50 (µM)
Numbers only, in µM.

Query: Enter recorded EC50 with glucokinase (GLK) (Homo sapiens, UniProt P35557) for COC[C@H](C)Oc1cc(OCC=C2CCCC2)cc(C(=O)Nc2ccc(C(=O)O)cn2)c1 [Example 2] here.
Result: 0.078

###

Test: Plasma protein binding by equilibrium dialysis
Type: in vitro ADME
Conditions: rat, 37° C., pH 7.4, read-out: % free in plasma
observationType: fraction unbound at 18 h, 20 μM
Numbers only.

Query: Please give measured fraction unbound at 18 h, 20 μM of the following entry: COC[C@H](C)Oc1cc(OCC=C2CCCC2)cc(C(=O)Nc2ccc(C(=O)O)cn2)c1
Result: 0.0042
